Quick list: selectivity ratio per entry.
Assay: Selectivity index, ratio of CC50 for cytotoxicity against human MRC5 cells to EC50 for Trypanosoma cruzi Tulahuen CL2 amastigotes expressing beta galactosidase infected in human MRC5 cells
Type: toxicity, cell-based
Conditions: read-out: Selectivity Index
Could you respond with only the numeric value?

Answered cases to consult:
CCCn1c(NC(=O)Cc2ccc(F)cc2)nc2c(F)cccc21 | 1
N#Cc1ccc2nc(NC(=O)c3cc(C(F)(F)F)n[nH]3)n(CC(F)F)c2c1 | 11

Input: Fill blank: measured selectivity ratio of the molecule `Cn1nccc1C(=O)Nc1nc2cc(F)cnc2n1CC(F)(F)F` is ____.
Output: 3

---

Experiment: Selectivity index, ratio of CC50 for cytotoxicity against human MRC5 cells to EC50 for Trypanosoma cruzi Tulahuen CL2 amastigotes expressing beta galactosidase infected in human MRC5 cells
Format: toxicity, cell-based
Conditions: read-out: Selectivity Index
# selectivity ratio annotations
# print the numeric value only

Consider the worked cases shown below.
Cn1nccc1C(=O)Nc1nc2ccc(C#N)cc2n1CC(F)F | 5
Cn1ccc(C(=O)Nc2nc3ccc(C#N)cc3n2CC(F)(F)F)n1 | 1
Cn1nc(C(F)(F)F)cc1C(=O)Nc1nc2ccc(C#N)cc2n1CC(F)(F)F | 34
CC(C)(O)Cn1c(NC(=O)c2ccc(C(F)(F)F)nc2)nc2ccc(C#N)cc21 | 1

With those in mind, consider the next compound.
Input: Would you mind telling me what selectivity ratio value was observed for `Cn1nccc1C(=O)Nc1nc2cc(C#N)cnc2n1CC(C)(C)C` ?
Output: 5
